The origin of these recorded values is ChEMBL document CHEMBL4513216.

test system: Plasmodium berghei; assay: Screen against P. berghei liver stage (PbLuc), transformed with Luciferase, at 10uM; format: functional, HepG2; settings: tested at 10 uM
The campaign covered roughly 69,000 compounds. About 8,600 (12%) showed an effect of 50% or more. Shown is part of a subset that was picked to be rich in strong results.
Classify: fulfilled when INHIBITION is strictly less than 30%; not fulfilled when INHIBITION is not.

# MOLECULE, TESTED ON, CAT
measured = [
    ("CCNc1cc2c(nn1)CCN(C(=O)c1ccnc(-n3ccnc3)c1)C2", "Plasmodium berghei", "not fulfilled"),
    ("CC(C)Oc1ccc(CNC(=O)CCN2C(=O)CCC2=O)cc1F", "Plasmodium berghei", "fulfilled"),
    ("Cc1cc(C(=O)N2CCc3nnc(N(C)C)cc3C2)c(C)n1C1CC1", "Plasmodium berghei", "fulfilled"),
    ("COCCC(=O)N1CCC(c2nnc(-c3ccsc3)o2)CC1", "Plasmodium berghei", "fulfilled"),
    ("Cc1noc(-c2ccnc(Oc3ccccc3CN3CCCCC3)c2)n1", "Plasmodium berghei", "not fulfilled"),
    ("c1ccc(Oc2nccc3occc23)c(CN2CCCCC2)c1", "Plasmodium berghei", "not fulfilled"),
    ("CC(C(=O)N1CCCCCC1)N1CCN(Cc2nccn2C)CC1 (stereo unspecified)", "Plasmodium berghei", "not fulfilled"),
    ("CNc1cc2c(nn1)CCN(C(=O)c1cccc3c1OCO3)C2", "Plasmodium berghei", "fulfilled"),
    ("Cn1cnc2ccc(NC(=O)CC3CCN(S(C)(=O)=O)CC3)cc21", "Plasmodium berghei", "fulfilled"),
    ("CCNC(=O)NCC1(CN2CCOCC2)CCCCC1", "Plasmodium berghei", "fulfilled"),
    ("O=C(O)c1ccc2c(CN3CCCC3)c[nH]c2c1", "Plasmodium berghei", "not fulfilled"),
    ("NC(=O)CN1CCOCC(Cc2ccccc2Cl)C1 (stereo unspecified)", "Plasmodium berghei", "fulfilled"),
    ("CS(=O)(=O)N1C[C@H]2CC[C@@H](C1)N(C(=O)CCn1cnc3ccccc31)C2", "Plasmodium berghei", "fulfilled"),
    ("COc1ccc(Cl)cc1CS(=O)(=O)Cc1nc(C)no1", "Plasmodium berghei", "not fulfilled"),
]
